# Test system: Candida albicans
# assay_notes: Antifungal activity against Candida albicans after 48 hrs by microbroth dilution method
# Type: functional
Label true (1) when GI >= 20 µg/mL; otherwise false (0).

Cc1cc(NC(=O)NC(=O)c2ccc(F)cc2)c(C(C)C)cc1O; false (0)
Cc1cc(NC(=S)NC(=O)c2ccccc2Cl)c(C(C)C)cc1O; true (1)
Cc1cc(NC(=O)NC(=O)c2ccccc2F)c(C(C)C)cc1O; false (0)
Cc1cc(NC(=S)NC(=O)c2ccccc2)c(C(C)C)cc1O; true (1)
Cc1ccc(C(C)C)cc1O [CARVACROL]; true (1)
Cc1cc(NC(=O)NC(=O)c2ccccc2Cl)c(C(C)C)cc1O; true (1)
Cc1cc(NC(=O)NC(=O)c2ccccc2)c(C(C)C)cc1O; true (1)
Cc1cc(NC(=S)NC(=O)c2ccccc2F)c(C(C)C)cc1O; true (1)
Cc1cc(NC(=O)NC(=O)c2c(F)cccc2F)c(C(C)C)cc1O; false (0)
